Reference for the values: patent US20220106304A1

The entries below come with measured inhibition at 30 µM values attached.
Target Desc: BRN2 (Homo sapiens, UniProt P20265)
Sequence (P20265 whole entry): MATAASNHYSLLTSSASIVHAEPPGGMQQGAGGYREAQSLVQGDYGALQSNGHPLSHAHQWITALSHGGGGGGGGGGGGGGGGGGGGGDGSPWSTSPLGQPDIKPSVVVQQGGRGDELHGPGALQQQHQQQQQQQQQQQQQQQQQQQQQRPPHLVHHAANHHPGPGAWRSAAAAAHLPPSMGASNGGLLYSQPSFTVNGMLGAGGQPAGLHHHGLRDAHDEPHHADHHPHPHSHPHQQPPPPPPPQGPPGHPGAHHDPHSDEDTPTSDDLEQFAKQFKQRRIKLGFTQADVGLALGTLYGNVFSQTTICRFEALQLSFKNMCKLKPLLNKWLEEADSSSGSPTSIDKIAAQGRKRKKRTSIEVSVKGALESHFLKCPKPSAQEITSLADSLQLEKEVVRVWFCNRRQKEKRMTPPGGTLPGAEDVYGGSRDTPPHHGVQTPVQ
Test Protocol: cell-based
Run Parameters: read-out: % BRN2 Inhibition (30 μM), 30 μM compound, 24 hours, 42D^ENZR cells stably expressing BRN2-luciferase reporter; negative = activation
Kindly answer with a numeric value in %, unit omitted.

Worked examples, 4 compounds total:
Compound: Cl.Cn1c(-c2ccc(C3=CCNCC3)o2)nc2ccc(C(F)(F)F)cc21 [VPC-18-70, hydrochloride]
Scale Unit: %
inhibition at 30 µM: 100
--
Compound: Cn1c(-c2ccc(-c3cccnc3)o2)nc2ccc(C(F)(F)F)cc21
Scale Unit: %
inhibition at 30 µM: -59
--
Compound: c1ccc2oc(-c3csc(N4CC5CC4CO5)n3)cc2c1 (centres unmarked)
Scale Unit: %
inhibition at 30 µM: 67
--
Compound: c1ccc2oc(-c3csc(-c4ccoc4)n3)cc2c1
Scale Unit: %
inhibition at 30 µM: 94.9

## Input For `FC(F)(F)c1ccc2cc(-c3csc(NCC4CC4)n3)oc2c1` , what is its reported inhibition at 30 µM?
## Output 92

====

Target Desc: UniProtKB P20265
Test Protocol: cell-based
Run Parameters: read-out: % BRN2 Inhibition (30 μM), 30 μM compound, 24 hours, 42D^ENZR cells stably expressing BRN2-luciferase reporter; negative = activation
Readout Label: inhibition at 30 µM (%)
Write down the numeric answer in % and omit the unit.

Solved cases (5 shown):
Compound: Cl.Clc1ccc2cc(-c3csc(C4=CCNCC4)n3)oc2c1 [VPC-18-95, hydrochloride]
Target Desc: UniProtKB P20265
Scale Unit: %
inhibition at 30 µM: 100

Compound: Cn1c(-c2ccc(N3CC4CC3CO4)o2)nc2ccccc21 (stereo not drawn)
Target Desc: UniProtKB P20265
Scale Unit: %
inhibition at 30 µM: 27.5

Compound: O=[N+]([O-])c1ccc2nc(-c3csc(-c4ccco4)n3)[nH]c2c1
Target Desc: UniProtKB P20265
Scale Unit: %
inhibition at 30 µM: 91.2

Compound: c1ccc2c(c1)CCC2c1cnn(-c2nc3ccccc3s2)c1 (stereo not drawn)
Target Desc: UniProtKB P20265
Scale Unit: %
inhibition at 30 µM: 41

Compound: Cn1c(-c2ccc(-c3ccc(C#N)cc3)o2)nc2ccccc21
Target Desc: UniProtKB P20265
Scale Unit: %
inhibition at 30 µM: -110

Consider the additional compound presented here.
## Input Reported inhibition at 30 µM for `FC(F)(F)c1ccc2cc(-c3csc(-c4ccco4)n3)oc2c1` : what is it?
## Output 71.4

====

Target Desc: UniProtKB P20265
Test Protocol: cell-based
Run Parameters: read-out: % BRN2 Inhibition (30 μM), 30 μM compound, 24 hours, 42D^ENZR cells stably expressing BRN2-luciferase reporter; negative = activation
Use TRUE when the recorded inhibition at 30 µM is no lower than 50%; use FALSE when it is lower.

Input Smiles: Cn1c(-c2ccc(-c3ccc(Br)cc3Cl)o2)nc2ccc(C(F)(F)F)cc21
Class: FALSE
//
Input Smiles: Cc1c(-c2csc(-c3ccco3)n2)oc2ccccc12
Class: TRUE
//
Input Smiles: Clc1cc2cc(-c3csc(-c4ccc[nH]4)n3)oc2cc1Cl
Class: TRUE
//
Input Smiles: O=[N+]([O-])c1ccc2cc(-c3csc(-c4ccc(F)cc4F)n3)oc2c1
Class: FALSE

Now let's try a different one.
## Input Hi team, for `CN1CCC(c2ccc(-c3nc4ccccc4n3C)o2)CC1` , is the recorded inhibition at 30 µM at or above 50%?
## Output FALSE
